tested on: S. aureus KP90-3 (MRSA); assay: Antibacterial activity, MIC by agar plate dilution assay; type: cell-based; set-up: unit not given here
Parameter: Minimum Inhibitory Concentration (MIC)

> print(dat)
                                   compound      experimental.target  numeric.value
1  COc1c(N2C[C@@H](CO)[C@H](C(F)(F)F)C2)c(F)cc2c(=O)c(C(=O)O)cn(C3CC3)c12 (relative stereo) [Example 9a]  S. aureus KP90-3 (MRSA)           0.78
2  Nc1c(F)c(N2C[C@@H](N)[C@H](C(F)(F)F)C2)c(F)c2c1c(=O)c(C(=O)O)cn2C1CC1 (relative stereo) [Example 29a]  S. aureus KP90-3 (MRSA)             25
3  O=C(O)c1cn(C2CC2)c2c(Cl)c(N3C[C@@H](CO)[C@H](C(F)(F)F)C3)c(F)cc2c1=O (relative stereo) [Example 7a]  S. aureus KP90-3 (MRSA)           0.39
4  NC[C@@H]1CN(c2c(F)cc3c(=O)c(C(=O)O)cn(C4CC4)c3c2Cl)C[C@H]1C(F)(F)F (relative stereo) [Example 15a]  S. aureus KP90-3 (MRSA)           0.39
5  NC[C@@H]1CN(c2c(F)c(N)c3c(=O)c(C(=O)O)cn(C4CC4)c3c2F)C[C@H]1C(F)(F)F (relative stereo) [Example 18a]  S. aureus KP90-3 (MRSA)           1.56
6  N[C@@H]1CN(c2c(F)cc3c(=O)c(C(=O)O)cn(C4CC4)c3c2F)C[C@H]1C(F)(F)F (relative stereo) [Example 23a]  S. aureus KP90-3 (MRSA)           12.5

---

test system: S. aureus Smith; assay: Antibacterial activity, MIC by agar plate dilution assay; type: cell-based; set-up: unit not given here
Parameter: Minimum Inhibitory Concentration (MIC)

> print(dat)
                                   compound   result
1  COc1c(N2C[C@@H](N)[C@H](C(F)(F)F)C2)c(F)cc2c(=O)c(C(=O)O)cn(C3CC3)c12 (relative stereo) [Example 31a]     0.05
2  N[C@@H]1CN(c2c(F)cc3c(=O)c(C(=O)O)cn(C4CC4)c3c2Cl)C[C@H]1C(F)(F)F (relative stereo) [Example 26a]     0.05
3  Nc1c(F)c(N2C[C@@H](N)[C@H](C(F)(F)F)C2)c(F)c2c1c(=O)c(C(=O)O)cn2C1CC1 (relative stereo) [Example 29a]    0.025
4  N[C@@H]1CN(c2nc3c(cc2F)c(=O)c(C(=O)O)cn3-c2ccc(F)cc2F)C[C@H]1C(F)(F)F (relative stereo) [Example 35a]     0.05
5  COc1c(N2C[C@@H](CO)[C@H](C(F)(F)F)C2)c(F)cc2c(=O)c(C(=O)O)cn(C3CC3)c12 (relative stereo) [Example 9a]  ≤ 0.006
6  O=C(O)c1cn(C2CC2)c2c(Cl)c(N3C[C@@H](CO)[C@H](C(F)(F)F)C3)c(F)cc2c1=O (relative stereo) [Example 7a]  ≤ 0.006
7  NC[C@@H]1CN(c2c(F)cc3c(=O)c(C(=O)O)cn(C4CC4)c3c2Cl)C[C@H]1C(F)(F)F (relative stereo) [Example 15a]  ≤ 0.006
8  N[C@@H]1CN(c2c(F)cc3c(=O)c(C(=O)O)cn(C4CC4)c3c2F)C[C@H]1C(F)(F)F (relative stereo) [Example 23a]      0.1

---

Below: a set of entries, each annotated with reported Minimum Inhibitory Concentration (MIC).
test system: S. pyogenes Cook; assay: Antibacterial activity, MIC by agar plate dilution assay; assay type: cell-based; design: unit not given here
Parameter: Minimum Inhibitory Concentration (MIC)

> print(dat)
                                   compound  experimental.target  numeric.value
1  Nc1c(F)c(N2C[C@@H](CO)[C@H](C(F)(F)F)C2)c(F)c2c1c(=O)c(C(=O)O)cn2C1CC1 (relative stereo) [Example 8a]     S. pyogenes Cook           0.39
2  N[C@@H]1CN(c2nc3c(cc2F)c(=O)c(C(=O)O)cn3-c2ccc(F)cc2F)C[C@H]1C(F)(F)F (relative stereo) [Example 35a]     S. pyogenes Cook           0.39
3  COc1c(N2C[C@@H](CN)[C@H](C(F)(F)F)C2)c(F)cc2c(=O)c(C(=O)O)cn(C3CC3)c12 (relative stereo) [Example 21a]     S. pyogenes Cook          0.025
